- target-of-assay: TNFα trimer (Homo sapiens)
- Sequence (P01375 77-233 limits assumed): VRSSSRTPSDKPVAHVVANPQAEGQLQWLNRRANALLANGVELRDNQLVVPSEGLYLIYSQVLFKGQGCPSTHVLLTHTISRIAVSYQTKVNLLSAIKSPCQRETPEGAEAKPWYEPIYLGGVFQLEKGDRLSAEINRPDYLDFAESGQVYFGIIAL
- test-description: TNFα FP Competitive Binding Assay
- reported-conditions: fluorescence polarization competition; 20 nM TNFα trimer, 1 nM OregonGreen488 probe; read-out: TNF IC50 (TNFα FP binding assay IC50)
- Description: TNFα FP Competitive Binding Assay • 1. […] • 1. […] Prior to reading the assay, the plates are placed in a dark cabinet to equilibrate at rt for one hour. • 9. Background-subtracted fluorescence polarization (mP) is measured using a PerkinElmer Envision plate reader. • 10. […]
pIC50: −log10 of the molar value.
reported-metric: pIC50

These solved cases illustrate the format of a correct answer.
# molecule, pIC50
data = [
    ("C1=C(c2ccc3nc4n(c3n2)[C@@H](c2ccccc2)CC4)CCN(c2ccncn2)C1", "5.00 to 6.00"),
    ("CS(=O)(=O)c1ccc(-c2ccc3nc4n(c3c2)C(c2ccccc2)CC4)cc1 (stereo not drawn)", "> 6.00"),
    ("CCS(=O)(=O)c1ccc(-c2ccc3nc4n(c3c2)C(c2ccccc2)CC4)cc1 (stereo not drawn)", "> 6.00"),
    ("c1ccc(C2OCCc3nc4ccc(-c5cnc(N6CCOCC6)nc5)nn4c32)cc1 (stereo not drawn)", "5.00 to 6.00"),
]

The following molecules each have a reported value; give each one's pIC50.
1. COc1ccc(C2(O)CCCCc3nc4ccc(-c5cnc(N6CCOCC6)nc5)cn4c32)cc1 (stereo not drawn)
2. O=C1NCNC12CCN(c1ncc(-c3ccc4nc5n(c4c3)[C@@H](c3ccccc3)COC5)cn1)CC2
3. Cc1cc(-c2ccc3nc4n(c3c2)C(c2ccccc2)CC4)ccn1 (stereo not drawn)
4. Cc1ncccc1-c1ccc2nc3n(c2c1)C(c1ccccc1)CC3 (stereo not drawn)
5. Cc1ccc(-c2ccc3nc4n(c3c2)C(c2ccccc2)CC4)cn1 (stereo not drawn)

1. 5.00 to 6.00
2. 5.00 to 6.00
3. 5.00 to 6.00
4. 4.00 to 5.00
5. 5.00 to 6.00
